# Tested on: Saccharomyces cerevisiae PS128 hsf1 delta, HSF1(1-493) fusion
# Method Notes: growth estimate (transactivation domain function in HSF1 fusion, heat-shock survival) (a.u. (slope of normalised read count over time)); higher = stronger growth at 37°C, i.e. more transactivation activity
# Setup Conditions: library: design library

[
  {
    "Residue String": "QQNGEIAPLWDFN",
    "Qualifier": "<",
    "growth estimate": -0.25
  },
  {
    "Residue String": "PFADTQDDFLKWWRSEEAQ",
    "Qualifier": "=",
    "growth estimate": 0.444
  },
  {
    "Residue String": "MLSSHGFSVDTSGLLDLFSP",
    "Qualifier": "=",
    "growth estimate": 0.0909
  },
  {
    "Residue String": "DLDESWDYIFEKTE",
    "Qualifier": "=",
    "growth estimate": -0.233
  },
  {
    "Residue String": "TMDDVYNYLGDD",
    "Qualifier": "=",
    "growth estimate": -0.149
  }
]

---

# Test system: Saccharomyces cerevisiae PS128 hsf1 delta, HSF1(1-493) fusion
# Method Notes: growth estimate (transactivation domain function in HSF1 fusion, heat-shock survival) (a.u. (slope of normalised read count over time)); higher = stronger growth at 37°C, i.e. more transactivation activity
# Setup Conditions: library: design library
Measured Metric: growth estimate

[
  {
    "Residue String": "VADDIWEELPSEDL",
    "Measured Metric": "growth estimate",
    "Qualifier": "<",
    "Assay Result": -0.25
  },
  {
    "Residue String": "PFPDTQDDFLKAWRSEEAQ",
    "Measured Metric": "growth estimate",
    "Qualifier": "<",
    "Assay Result": -0.25
  },
  {
    "Residue String": "PFPDTQDGFLKWWRSEEAQ",
    "Measured Metric": "growth estimate",
    "Qualifier": "<",
    "Assay Result": -0.25
  },
  {
    "Residue String": "QKNGEIAQLWDFN",
    "Measured Metric": "growth estimate",
    "Qualifier": "<",
    "Assay Result": -0.25
  },
  {
    "Residue String": "MLSSHGFSVDTSALLDLPSP",
    "Measured Metric": "growth estimate",
    "Qualifier": "<",
    "Assay Result": -0.25
  },
  {
    "Residue String": "DELSWIIELLEKKG",
    "Measured Metric": "growth estimate",
    "Qualifier": "<",
    "Assay Result": -0.25
  },
  {
    "Residue String": "PEFPGIELQELQGLQALLQQ",
    "Measured Metric": "growth estimate",
    "Qualifier": "<",
    "Assay Result": -0.25
  },
  {
    "Residue String": "EGDDEFSLWDSML",
    "Measured Metric": "growth estimate",
    "Qualifier": "=",
    "Assay Result": 0.054
  },
  {
    "Residue String": "PEFPGIELQELKELQALLQQ",
    "Measured Metric": "growth estimate",
    "Qualifier": "<",
    "Assay Result": -0.25
  },
  {
    "Residue String": "DELSWIGELLEKDG",
    "Measured Metric": "growth estimate",
    "Qualifier": "=",
    "Assay Result": -0.125
  },
  {
    "Residue String": "EFNPLLDLDFILSN",
    "Measured Metric": "growth estimate",
    "Qualifier": "<",
    "Assay Result": -0.25
  },
  {
    "Residue String": "EPDDEFSLWDSML",
    "Measured Metric": "growth estimate",
    "Qualifier": "=",
    "Assay Result": 0.531
  },
  {
    "Residue String": "EDLYSILASDVY",
    "Measured Metric": "growth estimate",
    "Qualifier": "=",
    "Assay Result": -0.238
  },
  {
    "Residue String": "PFPDTQPDFLKWWRSEEAQ",
    "Measured Metric": "growth estimate",
    "Qualifier": "=",
    "Assay Result": -0.22
  },
  {
    "Residue String": "EDLYSILGSDVY",
    "Measured Metric": "growth estimate",
    "Qualifier": "<",
    "Assay Result": -0.25
  },
  {
    "Residue String": "MLSSHGFSVDTGALLDLFSP",
    "Measured Metric": "growth estimate",
    "Qualifier": "=",
    "Assay Result": -0.207
  },
  {
    "Residue String": "DELSWIIELLPKDG",
    "Measured Metric": "growth estimate",
    "Qualifier": "=",
    "Assay Result": -0.225
  },
  {
    "Residue String": "DELSWIIELLERDG",
    "Measured Metric": "growth estimate",
    "Qualifier": "=",
    "Assay Result": 1.05
  },
  {
    "Residue String": "PEGPGIELQELQELQALLQQ",
    "Measured Metric": "growth estimate",
    "Qualifier": "<",
    "Assay Result": -0.25
  },
  {
    "Residue String": "DLDESADYIFETTE",
    "Measured Metric": "growth estimate",
    "Qualifier": "=",
    "Assay Result": -0.127
  },
  {
    "Residue String": "PFPDTQDDPLKWWRSEEAQ",
    "Measured Metric": "growth estimate",
    "Qualifier": "<",
    "Assay Result": -0.25
  },
  {
    "Residue String": "TMDDVYNYLFDG",
    "Measured Metric": "growth estimate",
    "Qualifier": "=",
    "Assay Result": 0.0766
  },
  {
    "Residue String": "TMDDVYKYLFDD",
    "Measured Metric": "growth estimate",
    "Qualifier": "=",
    "Assay Result": 0.872
  },
  {
    "Residue String": "TMDDVKNYLFDD",
    "Measured Metric": "growth estimate",
    "Qualifier": "<",
    "Assay Result": -0.25
  },
  {
    "Residue String": "PDLYSILWSDVY",
    "Measured Metric": "growth estimate",
    "Qualifier": "=",
    "Assay Result": -0.202
  },
  {
    "Residue String": "PEFPGIELQELPELQALLQQ",
    "Measured Metric": "growth estimate",
    "Qualifier": "=",
    "Assay Result": -0.22
  },
  {
    "Residue String": "AFDLDMLGDFDLDMLG",
    "Measured Metric": "growth estimate",
    "Qualifier": "=",
    "Assay Result": 1.88
  },
  {
    "Residue String": "PFPDTQDDFLPWWRSEEAQ",
    "Measured Metric": "growth estimate",
    "Qualifier": "=",
    "Assay Result": -0.145
  },
  {
    "Residue String": "DLDESWDYIFETRE",
    "Measured Metric": "growth estimate",
    "Qualifier": "=",
    "Assay Result": 0.311
  },
  {
    "Residue String": "DFDLDMLGDFDLDMLG",
    "Measured Metric": "growth estimate",
    "Qualifier": "=",
    "Assay Result": 7.72
  },
  {
    "Residue String": "MLSSHGFSVDTSALLDGFSP",
    "Measured Metric": "growth estimate",
    "Qualifier": "=",
    "Assay Result": -0.227
  },
  {
    "Residue String": "PELSWIIELLEKDG",
    "Measured Metric": "growth estimate",
    "Qualifier": "=",
    "Assay Result": -0.201
  },
  {
    "Residue String": "PEPPGIELQELQELQALLQQ",
    "Measured Metric": "growth estimate",
    "Qualifier": "<",
    "Assay Result": -0.25
  },
  {
    "Residue String": "LFDYDKLFGNDFA",
    "Measured Metric": "growth estimate",
    "Qualifier": "=",
    "Assay Result": -0.159
  }
]
